Catalogue of MIC readings, one per entry.
Tested on: Staphylococcus aureus
Assay: Antimicrobial activity against TetK multidrug efflux pump possessing Staphylococcus aureus XU-212 by standard microdilution method
Format: functional
Report as a plain number; the unit µg/mL is understood.

1. C/C=C(\C)C(=O)O[C@H]1[C@H](O)[C@@H](O)[C@H](O[C@@H]2[C@H]3OC(=O)CCCCCCCCC[C@H](CCCCC)O[C@@H]4O[C@H](C)[C@@H](O)[C@H](O)[C@H]4O[C@@H]4O[C@H](COC(=O)[C@@H](C)[C@H](C)O)[C@@H](O)[C@H](O)[C@H]4O[C@H](O[C@H]2C)[C@@H]3OC(=O)[C@@H](C)CC)O[C@@H]1C ... 32

Enquiry: Return reported MIC. Input compound: CCn1cc(C(=O)O)c(=O)c2cc(F)c(N3CCNCC3)cc21
Return: 16
